# Test system: OVCAR-4 ovarian
# procedure_summary: NCI tumour cell line growth inhibition, 48 h
readout_type: TGI

compound: CCCOC(=O)CCC(NC(=O)c1ccc(Nc2nc3ccccc3nc2-c2cccs2)cc1)C(=O)OCCC (stereo not given)
subject_of_test: OVCAR-4 ovarian
experimental_result: > 100 µM

compound: O=C(NOCCO)c1ccc2cncn2c1Nc1ccc(I)cc1F
subject_of_test: OVCAR-4 ovarian
experimental_result: > 100 µM

compound: O=C(OC1C#CCSCC#C/C=C\1)c1ccc2c(c1)C(=O)c1ccccc1C2=O (stereo not given)
subject_of_test: OVCAR-4 ovarian
experimental_result: > 100 µM

compound: C/C(=C\COP(=O)(O)OP(=O)(O)O)CC/C=C(\C)CNc1c(F)c(F)c(F)c(F)c1F
subject_of_test: OVCAR-4 ovarian
experimental_result: > 100 µM

compound: CCC(C)C(NC(=O)c1cccc2c(=O)c3ccccc3[nH]c12)C(=O)O (stereo not given)
subject_of_test: OVCAR-4 ovarian
experimental_result: > 100 µM

compound: Clc1ccc(Cc2nc3cc(Cl)c(Cl)cc3n2CC2CCCN3CCCCC23)cc1 (stereo not given)
subject_of_test: OVCAR-4 ovarian
experimental_result: 79.4 µM

compound: CC(=O)O[C@H]1CSC[C@@H](OC(C)=O)C1[N+](=O)[O-] (stereo not given in full)
subject_of_test: OVCAR-4 ovarian
experimental_result: > 100 µM

compound: CSC(SC)=C(C#N)C(=O)Nc1ccc(Cl)cc1
subject_of_test: OVCAR-4 ovarian
experimental_result: > 100 µM

compound: N#Cc1sc2nc3c(c(-c4ccccc4)c2c1N)CCCC3
subject_of_test: OVCAR-4 ovarian
experimental_result: > 100 µM

compound: COC(=O)CC(=O)OC1C[C@@H]2CCC3C(C)(C)CCC[C@]3(C)C23CC[C@@]1(C)C3 (stereo not given in full)
subject_of_test: OVCAR-4 ovarian
experimental_result: 32.5 µM

----------
# Tested on: K-562 leukemia
# procedure_summary: NCI tumour cell line growth inhibition, 48 h
GI50 reference

molecule: Cc1c2ccncc2c(C)c2c1[nH]c1ccc(O)cc12
subject_of_test: K-562 leukemia
GI50: 0.0182 µg/mL

molecule: c1c2c(cc3c1OCO3)-c1ncc3cc4c(cc3c1C2)OCO4
subject_of_test: K-562 leukemia
GI50: 10.1 nM

molecule: C=C(C)[C@@H]1CC[C@]2(C(=O)O)CC[C@]3(C)[C@H](CC[C@@H]4[C@@]5(C)CCC(N)C(C)(C)[C@@H]5CC[C@]43C)[C@@H]12 (stereo partly drawn)
subject_of_test: K-562 leukemia
GI50: 682 nM

molecule: CCc1ccc([OH2+])c(C(=O)[O-])c1.CCc1ccc([OH2+])c(C(=O)[O-])c1.CCc1ccc([OH2+])c(C(=O)[O-])c1.CCc1ccc([OH2+])c(C(=O)[O-])c1.[Cu+2].[Cu+2]
subject_of_test: K-562 leukemia
GI50: 38100 nM

molecule: CSc1ccc(-c2cn3ccsc3n2)cc1
subject_of_test: K-562 leukemia
GI50: 4850 nM

molecule: CC/C(=C/c1ccc(OC)cc1)[N+](=O)[O-]
subject_of_test: K-562 leukemia
GI50: 1950 nM

molecule: COc1cc(C(=O)/C=C/c2c[nH]c3ccccc23)cc(OC)c1OC
subject_of_test: K-562 leukemia
GI50: < 10 nM

molecule: CN1CCN(Cc2ccc(NC(=O)c3cncc(C#Cc4c(N)ncc5ccccc45)c3)cc2C(F)(F)F)CC1
subject_of_test: K-562 leukemia
GI50: 5 nM

molecule: COc1cccc(/C=C\C(=O)c2ccccc2)c1
subject_of_test: K-562 leukemia
GI50: 6270 nM

molecule: COc1cc(F)c(F)c(Nc2ccc(I)cc2F)c1NS(=O)(=O)C1(CC(O)CO)CC1 (stereo not drawn)
subject_of_test: K-562 leukemia
GI50: 15700 nM

molecule: O=C(O)CN(CCN(CC(=O)O)CC(=O)O)CC(=O)O.[Cu+2].[Na+]
subject_of_test: K-562 leukemia
GI50: > 100000 nM

molecule: COc1cc(/C=N\Nc2ccccc2)ccc1OC(=O)c1ccccc1
subject_of_test: K-562 leukemia
GI50: 369 nM

molecule: C=CC[PH+](c1ccccc1)c1ccccc1.C=CC[PH+](c1ccccc1)c1ccccc1.[Pt+2].[S-]c1nc2ccccc2[nH]1.[S-]c1nc2ccccc2[nH]1
subject_of_test: K-562 leukemia
GI50: 620 nM
